- System: UACC-62 melanoma
- experimental.protocol: NCI-60 one-dose screen, 48 h
- condition.details: 10 µM unless noted
The panel holds about 83,000 compounds, 20% with a hit somewhere; the sample as a whole holds those more often. Calls of active or inactive are those of the source. Rule for the calls: active = growth percent below 10; inactive = the rest.
Possible outcomes: class 1 = active, class 0 = inactive

compound	category.label
C[C@]12CC[C@@H]3C4=C(CC[C@H]3[C@@H]1CC[C@@H]2O)CC(=O)CC4	class 0
COc1cc(NCCCCCN=C(N)N)c2ncccc2c1	class 0
NC(=O)SCC(=O)Nc1ccc([As](=O)(O)O)cc1	class 0
C1CNC2CCCC2C1 (configuration not stated)	class 0
CC1(C)CC(=O)CC(C)(C)N1N=O	class 0
C/C(=C\C(=O)O[C@H]1[C@@H]2[C@H](C)CC[C@H]2[C@]2(C)O[C@@]1(C1CCCCC1)C[C@H]2OC(=O)CO)c1ccccc1	class 0
ClCCN(CCCl)c1ccc(/C=C\c2ccnc3ccccc23)cc1	class 0
CC(=O)Nc1ccc(Cc2ccc(NC(C)=O)cc2)cc1	class 0
Cc1cc(NC(=O)NCCOc2ccc(N3C(N)=NC(N)=NC3(C)C)cc2Cl)ccc1S(=O)(=O)F	class 0
COc1cc(C2(C#N)CCN(C)CC2)cc(OC)c1OC	class 0
CCOc1cc(C=C(C#N)C#N)cc(Br)c1O	class 0
S=P(NC1CCCCC1)(N1CC1)N1CC1	class 0
CC1(C)N=C(N)N=C(N)N1c1ccc(CNC(=O)Nc2ccc(S(=O)(=O)F)c(Cl)c2)c(Cl)c1	class 0
N#C[Se]CCCNS(=O)(=O)C1CC2C=CC1C2 (configuration not stated)	class 1
CC(=O)O[C@H]1CC[C@H]2[C@@H]3CC[C@H]4CC=C(C)C[C@]4(C)[C@H]3CC[C@]12C	class 0
NS(=O)(=O)c1nc[nH]c1[N+](=O)[O-]	class 0
COc1ccc(C(=O)c2ccc([As]=O)cc2)cc1 (configuration not stated)	class 1
CC(=O)Oc1ccc(Cl)cc1	class 0
CC1(C)N=C(N)N=C(N)N1c1ccc(OCCCCOc2ccc(S(=O)(=O)F)cc2)c(Cl)c1	class 0
O=C(O)CN1C(=O)C(Cc2ccccc2)N=C(c2cccc(O)c2)c2ccccc21 (configuration not stated)	class 0
COc1ccc(CN2CCN(Cc3ccccc3)CC2)c(O)c1	class 0
COc1ccc(C2=NN(c3ccccc3)C(c3sc(N(CCCl)CCCl)nc3Cl)C2)cc1 (configuration not stated)	class 0
CCC1([N+](=O)[O-])COP(=O)(NCc2cccnc2)OC1 (configuration not stated)	class 0
Cc1cc(C)nc(C)c1.[Cl][Hg][Cl]	class 0
CCN1CC2(CN(CC)C1=S)C(=O)NC(=O)NC2=O	class 0
O=C(C(=O)N1CCCC1)c1cn(CCCCCn2cc(C(=O)C(=O)N3CCCC3)c3ccccc32)c2ccccc12	class 0
c1cnc2c(c1)ccc1ncccc12	class 0
CC(=O)C1C(=O)N(C)C(=O)N(C)C1=O	class 0
CNC(=O)Oc1cccc(N(C)C)c1	class 0
CCC1CN1P(=O)(OCCOC)N1CC1CC (configuration not stated)	class 0
C/C(=N/OC(=O)N(C)C)c1cc(Cl)ccc1Cl	class 0
O=C1C(Cc2ccccc2)N=C(c2cccc(O)c2)c2ccc(Cl)cc2N1CC1CC1 (configuration not stated)	class 0
C[CH2][Pb]([CH2]C)([CH2]C)[O]C(=O)COC	class 0
Oc1c(Br)cc(Br)cc1Br.[Cu+2]	class 0
CO[C@@H]([CH2][Hg][S]C#N)[C@@H]([CH2][Hg][S]C#N)OC	class 0
CCCCCCCCCCOc1ccc(C(=O)Oc2ccc(CSP3(=O)OCC4OC(n5ccc(=O)[nH]c5=O)C(F)C4OP(=O)(O)OCC4OC(n5cnc6c(N)ncnc65)C(F)C4O3)cc2)cc1 (configuration not stated)	class 0
CCCCN(CCCC)CC(O)c1ccccc1 (configuration not stated)	class 0
COc1ccc(-c2ccc(OC)c(OC)c2OC)cc1	class 0
CC1CC=CCC12C(=O)NC(=S)NC2=O (configuration not stated)	class 0
C[CH2][Pb]([CH2]C)([CH2]C)[O]C(=O)COc1ccccc1	class 0
O=S(=O)(c1ccc(Cl)cc1)C(Cl)(Cl)Cl	class 0
COc1cc2c(cc1OC)CN(C)C(C)C2 (configuration not stated)	class 0

====

- Test system: K-562 leukemia
- experimental.protocol: NCI-60 one-dose screen, 48 h (100 = growth as untreated, 0 = no growth, -100 = all killed)
- condition.details: 10 µM unless noted
The panel holds about 83,000 compounds, 20% with a hit somewhere; the sample as a whole holds those more often. Calls of active or inactive are those of the source. Rule for the calls: active = growth percent below 10; inactive = the rest.
quantity: growth

molecule	measured.result
Cc1cc(NC(=O)/C=C/c2ccc([N+](=O)[O-])cc2)ccc1S(=O)(=O)F	94.7% (inactive)
COC(=O)C(=[N+]=[N-])C(=O)OC	95.5% (inactive)
C=CCC1(CC)C(=O)NC(=S)NC1=O	95.5% (inactive)
C/C(=C\C(=O)O[C@H]1[C@@H]2[C@H](C)CC[C@H]2[C@]2(C)O[C@@]1(C1CCCCC1)C[C@H]2OC(=O)CO)c1ccccc1	23.2% (inactive)
CC(=O)O[C@@H]1C2=C(C)C3(CC3)[C@@](C)(O)C(=O)C2=C[C@@]1(C)CO	1.92% (active)
Oc1c(Br)cc(Br)cc1Br.[Cu+2]	107% (inactive)
c1ccc(-c2ccc3ccccc3[o+]2)cc1	101% (inactive)
CC(=O)[O][Hg][CH2]C1(C)COC(C)([CH2][Hg][O]C(C)=O)CO1 (centres undefined)	-30.8% (active)
CNC(=O)O/N=C(/C)c1ccc(Cl)cc1	92.9% (inactive)
CO[C@@H]1[C@H](OC(=O)NC(=O)CCl)CC[C@]2(CO2)[C@H]1[C@@]1(C)O[C@@H]1CC=C(C)C	47.2% (inactive)
O=C(O)CC(Br)C(=O)CBr (centres undefined)	105% (inactive)
S=P(NC1CCCCC1)(N1CC1)N1CC1	61.4% (inactive)
CC(C)(C)[Si](C)(C)OC1[C@@H](O[Si](C)(C)C(C)(C)C)[C@@H](CNC(=O)NC(=O)CF)O[C@H]1n1cnc2c(NC(=O)Nc3ccccc3)ncnc21 (some centres undefined)	37.7% (inactive)
CC(=O)C1C(=O)N(C)C(=O)N(C)C1=O	108% (inactive)
O=C(O)c1[nH]c(=O)[nH]c(=O)c1F	107% (inactive)
COc1cc(N(CCCl)CCCl)ccc1C=Nc1ccccc1C(=O)O	95% (inactive)
COc1ccc(CN2CCN(Cc3ccccc3)CC2)c(O)c1	74.3% (inactive)
O=C1NC(=O)C(Cc2ccccc2)(Cc2ccccc2)C(=O)N1	86.7% (inactive)
COc1cc(CNCCc2ccc(Cl)cc2)cc(OC)c1O	21.7% (inactive)
CC(=O)Nc1ccc(C=C2C(=O)NC(=O)NC2=O)cc1	104% (inactive)
CC1(C)N=C(N)N=C(N)N1c1ccc(CCCCc2ccc(S(=O)(=O)F)cc2)c(Cl)c1	13.1% (inactive)
CO[C@@H](c1ccccc1Cl)[C@H](C)OC(N)=O	104% (inactive)
CC(CC(C#N)(c1ccccc1)c1ccccc1)N1CCOCC1 (centres undefined)	83.5% (inactive)
COc1cccc2c1C(=O)c1c(O)c3c(c(O)c1C2=O)CC(O)(/C(C)=N/NC(=O)CCC(=O)N/N=C(\C)C1(O)Cc2c(O)c4c(c(O)c2C(OC2CC(N)C(O)C(C)O2)C1)C(=O)c1c(OC)cccc1C4=O)CC3OC1CC(N)C(O)C(C)O1 (centres undefined)	-60.2% [5 µM] (active)
COP(=S)(OC)Oc1ccc(SC)c(C)c1	99.6% (inactive)
CN1C(=O)NC(=O)C(N=Nc2ccc(Cl)cc2)C1=O (centres undefined)	54.7% (inactive)
Cc1cc([N+](=O)[O-])c(Cl)cc1NS(=O)(=O)c1ccccc1	71% (inactive)
ClCCN(CCCl)c1nc(Cl)c(C2CC(c3ccccc3)=NN2c2ccccc2)s1 (centres undefined)	68.3% (inactive)
Cc1cc(C)nc(C)c1.[Cl][Hg][Cl]	83.6% (inactive)

====

Consider the following molecules and their measured growth readings.
- System: HL-60(TB) leukemia
- experimental.protocol: NCI-60 one-dose screen, 48 h (100 = growth as untreated, 0 = no growth, -100 = all killed)
- condition.details: 10 µM unless noted
The panel holds about 83,000 compounds, 20% with a hit somewhere; the sample as a whole holds those more often.
quantity: growth (%)

                                smiles_repr  quantity  measured_result
0  COc1ccc2c(c1)/C(=C\c1c[nH]c3ccc(F)cc13)C(=O)N2    growth             88.3
1    CN1C(=O)/C(=C\c2c(Cl)cccc2Cl)c2ccccc21    growth             80.9
2             Cc1cccc(C(=O)N(C(C)C)C(C)C)c1    growth             99.1
3  Nc1nc2c(ncn2[C@@H]2O[C@H](CS)[C@@H](O)[C@H]2O)c(=O)[nH]1    growth              101
